Target: KRas G12D fused to HiBiT peptide (Homo sapiens, UniProt P01116, G12D)
Construct: endogenous in cells; host or cells: AsPC-1 HiBiT knock-in single clone (Cas9 RNP + ssODN)
Sequence (P01116 1-188 isoform P01116-2 G12D): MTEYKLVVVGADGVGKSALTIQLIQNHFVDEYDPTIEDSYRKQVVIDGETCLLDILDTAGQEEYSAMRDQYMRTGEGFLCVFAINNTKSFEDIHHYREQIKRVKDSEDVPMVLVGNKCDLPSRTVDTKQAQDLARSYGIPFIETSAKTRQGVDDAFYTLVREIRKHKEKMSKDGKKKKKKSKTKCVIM
Assay Notes: ASPC-1 HiBit assay to determine G12D degradation
Format: cell-based
Condition Context: AsPC-1 HiBiT cells, 24-hour incubation; read-out: ASPC-1 HiBit DC50 (C)
We begin with a simple list: items and their reported DC50.

Compound | Unit Text | DC50
CC(C)[C@@H](C(=O)N1C[C@H](O)C[C@H]1C(=O)N[C@@H](C)c1ccc(-c2c(F)cccc2F)cc1)c1cc(OCC2(C)CCN(CCOc3nc(N4CC5CCC(C4)N5)c4cc(C(F)(F)F)c(-c5ccc(F)c6sc(N)c(C#N)c56)c(F)c4n3)CC2)no1 | nM | 185
CC(C)[C@@H](C(=O)N1C[C@H](O)C[C@H]1C(=O)N[C@@H](C)c1ccc(-c2c(F)cc(F)cc2F)cc1)c1cc(OCC2(C)CCN(CCOc3nc(N4CC5CCC(C4)N5)c4cc(Cl)c(-c5ccc(F)c6sc(N)c(C#N)c56)c(F)c4n3)CC2)no1 | nM | 528
C[C@H](NC(=O)[C@@H]1C[C@@H](O)CN1C(=O)[C@@H](NC(=O)CCOCCCN1CCC[C@H]1COc1nc(N2CC3CCC(C2)N3)c2cc(Cl)c(-c3ccc(F)c4sc(N)c(C#N)c34)c(F)c2n1)C(C)(C)C)c1ccc(-c2c(F)cc(F)cc2F)cc1 (single isomer, unassigned) | nM | 135
C#Cc1c(F)ccc2cc(O)cc(-c3ncc4c(N5CC6CCC(C5)N6)nc(OC[C@@H]5CCCN5CCCOCCC(=O)N[C@H](C(=O)N5C[C@H](O)C[C@H]5C(=O)N[C@@H](C)c5ccc(-c6scnc6C)cc5)C(C)(C)C)nc4c3F)c12 | nM | 444

----------
Target: KRAS G12D (Homo sapiens, UniProt P01116, G12D)
Sequence (P01116 1-169 isoform P01116-2 G12D): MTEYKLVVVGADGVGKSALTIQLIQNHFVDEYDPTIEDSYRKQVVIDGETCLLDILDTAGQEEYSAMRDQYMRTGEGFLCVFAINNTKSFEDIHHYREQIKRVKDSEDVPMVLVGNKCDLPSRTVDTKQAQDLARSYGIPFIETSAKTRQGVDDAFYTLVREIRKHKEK
Assay Notes: In-vitro RAS-RAF binding assay (RRB), HTRF/FRET
Assay type: biochemical
Design: Biotinylated KRAS protein amino acids 1-169 (produced at Erasca); made in house
Condition Context: Table 1; read-out: Inhibition of RAS-RAF Binding (in-vitro) KRAS (G12D) IC50
We begin with a simple list: items and their reported IC50.

Compound | Unit Text | IC50
Cc1cc(N)nc(-c2c(Cl)cc3c(N4CC5CCC(C4)N5)nc(OC[C@@H]4CCCN4CCCCCCCN4CCC(c5cc(F)cc6c5CN(C5CCC(=O)NC5=O)C6=O)CC4)nc3c2F)c1C(F)(F)F (stereo partly shown) [Example 5] | nM | 19
C#Cc1c(F)ccc2cc(O)cc(-c3ncc4c(N5CC6CCC(C5)N6)nc(OC[C@@H]5CCCN5CCCOCCC(=O)N[C@H](C(=O)N5C[C@H](O)C[C@H]5C(=O)N[C@@H](C)c5ccc(-c6c(F)cccc6F)cc5)C(C)(C)C)nc4c3F)c12 [Example 14] | nM | 9.4
C[C@H](NC(=O)[C@@H]1C[C@@H](O)CN1C(=O)[C@@H](NC(=O)CCOCCCN1CCCC1COc1nc(N2CC3CCC(C2)N3)c2cc(Cl)c(-c3ccc(F)c4sc(N)c(C#N)c34)c(F)c2n1)C(C)(C)C)c1ccc(-c2c(F)cccc2F)cc1 (stereo partly shown) [Example 12] | nM | 11.3
Cc1cc(N)nc(-c2c(Cl)cc3c(N4CC5CCC(C4)N5)nc(OC[C@@H]4CCCN4CCCOCCC(=O)N[C@H](C(=O)N4C[C@H](O)C[C@H]4C(=O)NCc4ccc(-c5scnc5C)cc4)C(C)(C)C)nc3c2F)c1C(F)(F)F [Example 2] | nM | 17
